# Assayed System: murine IL-21R expressed on cells (murine, UniProt Q9JHX3 20-529)
# Sequence (Q9JHX3 20-529 limits assumed): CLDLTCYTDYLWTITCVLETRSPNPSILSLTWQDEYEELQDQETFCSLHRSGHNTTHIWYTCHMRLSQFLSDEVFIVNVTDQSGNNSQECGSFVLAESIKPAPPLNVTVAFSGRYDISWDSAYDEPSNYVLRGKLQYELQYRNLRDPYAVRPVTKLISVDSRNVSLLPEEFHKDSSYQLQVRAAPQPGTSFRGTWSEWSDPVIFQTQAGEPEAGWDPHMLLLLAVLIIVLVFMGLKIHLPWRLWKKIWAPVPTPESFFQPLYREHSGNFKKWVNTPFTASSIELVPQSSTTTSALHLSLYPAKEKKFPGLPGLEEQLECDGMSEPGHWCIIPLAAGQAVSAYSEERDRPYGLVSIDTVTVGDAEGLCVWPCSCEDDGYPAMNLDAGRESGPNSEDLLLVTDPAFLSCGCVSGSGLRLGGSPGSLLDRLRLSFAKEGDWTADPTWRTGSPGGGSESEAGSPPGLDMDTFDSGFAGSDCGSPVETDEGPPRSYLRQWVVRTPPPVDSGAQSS
# Procedure Summary: cell-based or functional assay
Recorded Endpoint: Murine IL-21R-BaF3 Proliferation IC50 (nM)
Note: unit nM is implicit; provide only the numeric part.

Look over these answered cases.
# Binder, Unit Abbrev, Murine IL-21R-BaF3 Proliferation IC50
rows = [
    ("AbI (antibody, human IgG1, V domains shown, Full-length human IgG1 / human lambda, transient, conditioned medium; Framework limits derived; also called VHP/VL24) VH: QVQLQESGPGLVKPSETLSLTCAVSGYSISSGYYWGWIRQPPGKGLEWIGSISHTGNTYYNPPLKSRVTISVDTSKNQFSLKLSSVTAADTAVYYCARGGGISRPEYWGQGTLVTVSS VL: SSELTQDPAVSVALGQTVRITCQGDSLRTYYASWYQQKPGQAPVLVIYGKHKRPSGIPDRFSGSSSGNTASLTITGAQAEDEADYYCIARSNKGNPHVLFGGGTQLTVL", "nM", 0.224),
    ("AbB (antibody, human IgG1, V domains shown, Full-length human IgG1 / human lambda, transient, conditioned medium; Framework limits derived; also called VHP/VL3) VH: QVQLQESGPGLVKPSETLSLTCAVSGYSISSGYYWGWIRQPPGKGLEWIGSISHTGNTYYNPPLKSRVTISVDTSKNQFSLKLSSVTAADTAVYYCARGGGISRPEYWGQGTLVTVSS VL: SSELTQDPAVSVALGQTVRITCQGDSLRTYYASWYQQKPGQAPVLVIYGKHKRPSGIPDRFSGSSSGNTASLTITGAQAEDEADYYCVSRAVVGNPHVLFGGGTQLTVL", "nM", 0.421),
]

Lab note: next binder to report on.
Enquiry: Entry under review: AbQ (antibody, human IgG1, V domains shown, Purified form: human IgG1 double-mutant (L234A, G237A); Framework limits derived; also called VH3/VL2; VH3DM/VL2) VH: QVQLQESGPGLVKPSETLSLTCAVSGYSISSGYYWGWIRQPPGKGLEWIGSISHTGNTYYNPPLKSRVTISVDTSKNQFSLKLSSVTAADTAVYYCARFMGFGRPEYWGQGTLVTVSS VL: SSELTQDPAVSVALGQTVRITCQGDSLRTYYASWYQQKPGQAPVLVIYGKHKRPSGIPDRFSGSSSGNTASLTITGAQAEDEADYYCVARSVVGNPHVLFGGGTQLTVL . Reported Murine IL-21R-BaF3 Proliferation IC50?
Return: 0.153

# credit: patent US20090298167A1
